Task for the reader: assign each of the following binders its reported Phage binding ELISA CD28 scFv signal.
target: Anti-CD28 scFv (VH-linker 1-VL) (biotinylated for capture on neutravidin plates); assay: phage ELISA, scFv captured on plate;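 further: crude clonal phage supernatants added to wells preincubated with soluble CD28 or with blocking buffer only, bound phage read out by HRP-linked anti-M13 antibody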
Sequence (scFv, as listed by the source): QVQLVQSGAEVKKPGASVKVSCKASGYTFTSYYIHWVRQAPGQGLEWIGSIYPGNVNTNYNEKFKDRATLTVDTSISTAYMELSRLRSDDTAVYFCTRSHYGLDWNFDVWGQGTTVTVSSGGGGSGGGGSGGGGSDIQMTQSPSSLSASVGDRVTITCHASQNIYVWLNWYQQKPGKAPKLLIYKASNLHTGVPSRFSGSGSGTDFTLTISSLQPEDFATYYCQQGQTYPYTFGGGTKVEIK
Numbers only.

# count of solved cases: 8
MFWCPRYLWHECFN [Phage-163] ... 1.08
MDWCPRHLWDLCFF [Phage-153] ... 1.4
MDWCPRHLWYACFN [Phage-144] ... 2.01
MDWCPKFLWHECFS [Phage-135] ... 2.28
MAWCPMNLWDQCFF [Phage-159] ... 1.2
MDWCPRAMWDKCFF [Phage-212] ... 0.985
MNWCPTDLWHECFN [Phage-162] ... 1.09
MHWCPRYLWDECFN [Phage-180] ... 0.55

Each of the following entries comes with a recorded value; kindly state Phage binding ELISA CD28 scFv signal for each.
1. MNWCPSYMWDQCFA [Phage-213]
2. MDWCPTDMWHHCFL [Phage-205]
3. MDWCPTNLWHECFA [Phage-138]
4. MDWCPRDLWDVCFA [Phage-139]

## Result
[0.854, 2.2, 2.16, 2.16]

// data source = patent US20230357447A1
